These measurements were taken from patent US20240180900A1.

# measurement.description: food/PPI effect on single-dose PK in healthy volunteers (phase 1)
# Type: in vivo, human
# condition.summary: male, human, plasma, oral, 300 mg, 300 mg Alone; read-out: AUClast, Geometric Mean (Geometric CV %)
reported.property: AUC(0-t) (ng·h/mL)
The reply should contain only the number, in ng·h/mL.

# get_value(readout='AUC(0-t)', item= COc1cc(O[C@H]2C(C)(C)[C@H](NC(=O)c3ccc(N4CCC(CN5CCN(c6ccc(C(=O)N[C@H]7CCC(=O)NC7=O)c(F)c6)CC5)CC4)cc3)C2(C)C)ccc1C#N ) 10600

---

# measurement.description: preliminary PK in mCRPC participants (Phase 1/2)
# Assay type: in vivo, human
# condition.summary: male, human, plasma, oral, 480 mg, 480 mg QD, Mean (CV %); read-out: AUC0-24 Day 1
reported.property: AUC(0-t)

# get_value(readout='AUC(0-t)', item= COc1cc(O[C@H]2C(C)(C)[C@H](NC(=O)c3ccc(N4CCC(CN5CCN(c6ccc(C(=O)N[C@H]7CCC(=O)NC7=O)c(F)c6)CC5)CC4)cc3)C2(C)C)ccc1C#N ) 2540 ng·h/mL
